Protein target, amino acids: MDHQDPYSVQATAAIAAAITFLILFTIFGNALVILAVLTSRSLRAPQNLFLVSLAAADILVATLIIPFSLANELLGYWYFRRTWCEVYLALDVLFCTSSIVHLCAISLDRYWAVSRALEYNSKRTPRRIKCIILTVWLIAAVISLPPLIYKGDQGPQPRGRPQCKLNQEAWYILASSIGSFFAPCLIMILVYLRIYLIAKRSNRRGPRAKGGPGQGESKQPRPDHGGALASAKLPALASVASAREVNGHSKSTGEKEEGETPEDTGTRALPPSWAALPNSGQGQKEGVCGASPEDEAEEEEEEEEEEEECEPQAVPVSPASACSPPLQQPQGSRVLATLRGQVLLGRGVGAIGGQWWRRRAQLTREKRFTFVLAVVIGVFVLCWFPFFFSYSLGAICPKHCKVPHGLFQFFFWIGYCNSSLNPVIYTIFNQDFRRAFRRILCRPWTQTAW
Record: compiled Ki on the protein given by its sequence from multiple reports.
ENDPOINT_LABEL: Ki

molecule="NC(CS(=O)O)C(=O)O (stereo unspecified)" target_entity="the protein given by its sequence" recorded_value="> 10 µM"
molecule="CCCN1CCOC2c3cc(C(N)=O)ccc3CCC21 (stereo unspecified)" target_entity="the protein given by its sequence" recorded_value="1.66 µM"
molecule=CSCC[C@@H](N)C(=O)O target_entity="the protein given by its sequence" recorded_value="> 10 µM"
molecule="CC(C)=CCC[C@]1(C)[C@@H](CC=C(C)C)C[C@]2(CC=C(C)C)C(=O)C(CC=C(C)C)C(=O)[C@]1(C(=O)C(C)C)C2=O (stereo partly specified)" target_entity="the protein given by its sequence" recorded_value="> 10 µM"
molecule="NC(CSSCC(N)C(=O)O)C(=O)O (stereo unspecified)" target_entity="the protein given by its sequence" recorded_value="> 10 µM"
molecule=COc1ccccc1N1CCN(CCN(C(=O)C2CCCCC2)c2ccccn2)CC1 target_entity="the protein given by its sequence" recorded_value="> 10 µM"
